Below, each entry is listed with its recorded growth.
System: SK-MEL-2 melanoma
Test: NCI-60 one-dose screen, 48 h (100 = growth as untreated, 0 = no growth, -100 = all killed)
Conditions: 10 µM unless noted
The panel holds about 83,000 compounds, 20% with a hit somewhere; the sample as a whole holds those more often.
Answer in %, number only, no unit symbol.

Some solved cases for reference:
> print(dat)
                                smilesentry  readoutkind  unitofmeasure   val
1  O=C(COc1ccc(-c2nc3cc(Cl)c(Cl)cc3[nH]2)cc1)N=Nc1c(O)[nH]c2ccc(Cl)cc12       growth              %  90.2
2  O=c1c2cccc3c(N4CCCC4)ccc(c32)c2nc3ccccc3n12       growth              %   113
3  CCOC(=O)c1csc(NC(=O)COc2ccc(/C=C3\Oc4ccccc4C3=O)cc2)n1       growth              %  94.8
4  O=C(/C=C/c1cn(-c2ccccc2)nc1-c1ccc(Cl)cc1)c1ccc(F)cc1       growth              %  88.6
5  CCc1ccccc1-n1c(-c2ccc(OC)cc2)cc(-c2ccc(OC)cc2)c(C#N)c1=O       growth              %  90.2

Alright, here's another molecule for you.
Query (molecule): CN1CCN(c2cc(Nc3cc(C4CC4)[nH]n3)nc(Nc3ccc(CC(=O)NCc4cccc(F)c4)cc3)n2)CC1 ; field requested: growth 48.9
